Here the recorded Inhibition is given for each entry.
Organism: Rattus norvegicus
Experiment: Inhibition of testosterone-enhanced ventral prostate weight in castrated immature Sprague-Dawley rat
Assay type: functional, Prostate gland
Design: concentration or dose not given beside the values

compound	Inhibition
CC1(/C(=N/c2ccc(C#N)c(C(F)(F)F)c2)NS(C)(=O)=O)CC(C(F)(F)F)=NN1 (centres undefined)	<10%
CC12CC(C(F)(F)F)=NN1C(N)=N/C2=N\c1ccc(Cl)c(Cl)c1 (centres undefined)	31%
CC12CC=NN1C(N)=N/C2=N\c1ccc(C#N)c(C(F)(F)F)c1 (centres undefined)	<10%
CON/C(=N\c1ccc(C#N)c(C(F)(F)F)c1)C1(C)CC(C(F)(F)F)=NN1 (centres undefined)	<10%
CC12CC(C(F)(F)F)=NN1C(N)=N/C2=N\c1ccc(Br)c(C(F)(F)F)c1 (centres undefined)	<10%
CC12CC(C(F)(F)F)=NN1C(N)=N/C2=N\c1ccc([N+](=O)[O-])c(C(F)(F)F)c1 (centres undefined)	<10%
CCC12CC(C(F)(F)F)=NN1C(N)=N/C2=N\c1ccc(C#N)c(C(F)(F)F)c1 (centres undefined)	<10%
CCc1c(/N=C2\N=C(N)N3N=C(C(F)(F)F)CC23C)ccc(C#N)c1C(F)(F)F (centres undefined)	<10%
CC1(/C(=N/c2ccc(C#N)c(C(F)(F)F)c2)NO)CC(C(F)(F)F)=NN1 (centres undefined)	<10%

---

Species on record: Rattus norvegicus
Assay: Inhibition of testosterone-enhanced ventral prostate weight in castrated immature Sprague-Dawley rat
Type: functional, Prostate gland
Parameters: concentration or dose not given beside the values

compound	lt-gt-eq	Inhibition / %
CCOC(=O)C1=NN2C(N)=N/C(=N\c3ccc(C#N)c(C(F)(F)F)c3)C2(C)C1 (stereo unspecified)	<	10
CC1(/C(=N/c2ccc(C#N)c(C(F)(F)F)c2)N2CCCC2)CC(C(F)(F)F)=NN1 (stereo unspecified)	<	10
CCN(CC)/C(=N\c1ccc(C#N)c(C(F)(F)F)c1)C1(C)CC(C(F)(F)F)=NN1 (stereo unspecified)	<	10
CCN/C(=N\c1ccc(C#N)c(C(F)(F)F)c1)C1(C)CC(C(F)(F)F)=NN1 (stereo unspecified)	=	18
CC1(/C(N)=N/c2ccc(C#N)c(C(F)(F)F)c2)CC(C(F)(F)F)=NN1 (stereo unspecified)	=	20
CC12CC(c3c(F)c(F)c(F)c(F)c3F)=NN1C(N)=N/C2=N\c1ccc(C#N)c(C(F)(F)F)c1 (stereo unspecified)	<	10
C[C@]12CC(C(F)(F)F)=NN1C(N)=N/C2=N\c1ccc(C#N)c(C(F)(F)F)c1	=	30
C[C@](O)(CS(=O)(=O)c1ccc(F)cc1)C(=O)Nc1ccc(C#N)c(C(F)(F)F)c1 [(R)-BICALUTAMIDE]	=	70
C[C@@]12CC(C(F)(F)F)=NN1C(N)=N/C2=N\c1ccc(C#N)c(C(F)(F)F)c1	<	10
CN/C(=N\c1ccc(C#N)c(C(F)(F)F)c1)C1(C)CC(C(F)(F)F)=NN1 (stereo unspecified)	=	15
CC12CC(C(F)(F)F)=NN1C(NC(=O)C(F)(F)F)=N/C2=N\c1ccc(C#N)c(C(F)(F)F)c1 (stereo unspecified)	=	31

Reference for the values: ChEMBL document CHEMBL1146274
